Test system: VDR:RXRa (NR concentration 270 nM, RXRa partner concentration 90 nM)
Assay: PBM binding z-score (relative to random genomic background probes); higher = stronger binding; sequences stand for … in GC…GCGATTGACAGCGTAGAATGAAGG
Classification field: enter rule met for PBM binding z-score values not below 1, rule not met for values below it.

INPUT: Assess whether reported PBM binding z-score for `AGTCAAAATTCATCTAGGTAACGTAAGATATGCT` sits at 1 or higher.
OUTPUT: rule not met

INPUT: Is reported PBM binding z-score greater than or equal to 1 here: `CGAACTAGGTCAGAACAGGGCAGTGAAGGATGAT`
OUTPUT: rule not met

INPUT: API: above_or_equal(metric=PBM binding z-score, cutoff=1) for item `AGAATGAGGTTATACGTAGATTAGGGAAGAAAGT`
OUTPUT: rule met

INPUT: Is reported PBM binding z-score greater than or equal to 1 here: `CCTACTGGGCCAAAAAGGTCATTTATGCCGATAA`
OUTPUT: rule met

New cases:
INPUT: Record `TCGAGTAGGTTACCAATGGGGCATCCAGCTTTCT` ; criterion: PBM binding z-score no lower than 1. Met?
OUTPUT: rule not met

INPUT: State whether the measured PBM binding z-score reaches 1, counting equality as reaching it, for `CCAGACAGGTGAGAAAGTAACTCAGCCTCGATTA`
OUTPUT: rule not met

INPUT: Could you verify whether the entry `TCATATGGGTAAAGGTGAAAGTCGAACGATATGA` shows PBM binding z-score of no less than 1?
OUTPUT: rule not met

INPUT: Could you please find out whether `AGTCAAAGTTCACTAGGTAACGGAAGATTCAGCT` has PBM binding z-score that meets 1 or exceeds it?
OUTPUT: rule met

INPUT: Item `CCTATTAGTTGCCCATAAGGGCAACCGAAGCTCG` with PBM binding z-score of 1 or above?
OUTPUT: rule not met

INPUT: State whether the measured PBM binding z-score reaches 1, counting equality as reaching it, for `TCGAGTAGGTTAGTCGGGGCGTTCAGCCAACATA`
OUTPUT: rule met

INPUT: Reported PBM binding z-score at or above 1? `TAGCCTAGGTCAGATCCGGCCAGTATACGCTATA`
OUTPUT: rule not met

INPUT: Tell me whether PBM binding z-score is at least 1 here: `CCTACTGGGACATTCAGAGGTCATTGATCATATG`
OUTPUT: rule met

INPUT: Could you please find out whether `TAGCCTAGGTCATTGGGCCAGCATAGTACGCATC` has PBM binding z-score that meets 1 or exceeds it?
OUTPUT: rule met

INPUT: PBM binding z-score >= 1 for `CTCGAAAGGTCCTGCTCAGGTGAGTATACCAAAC` ?
OUTPUT: rule not met

INPUT: Form field: PBM binding z-score at least 1? Entry: `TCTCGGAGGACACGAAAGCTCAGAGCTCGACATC`
OUTPUT: rule not met

INPUT: Answer whether PBM binding z-score of `CGAACTAGGGCAGAACAGGACAGTGAAGGATGAT` is greater than or equal to 1.
OUTPUT: rule not met

INPUT: PBM binding z-score >= 1 for `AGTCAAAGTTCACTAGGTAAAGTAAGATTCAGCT` ?
OUTPUT: rule met

INPUT: Evaluate `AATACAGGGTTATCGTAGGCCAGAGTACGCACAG` : PBM binding z-score at minimum 1?
OUTPUT: rule met

INPUT: Evaluate `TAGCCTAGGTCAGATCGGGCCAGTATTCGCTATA` : PBM binding z-score at minimum 1?
OUTPUT: rule not met

INPUT: Can `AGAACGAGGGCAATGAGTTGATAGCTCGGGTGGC` be said to have PBM binding z-score at or above 1?
OUTPUT: rule met

INPUT: Given `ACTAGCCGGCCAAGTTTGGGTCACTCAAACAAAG` , state whether its PBM binding z-score is at least 1.
OUTPUT: rule not met

INPUT: Dear colleague, could you confirm whether `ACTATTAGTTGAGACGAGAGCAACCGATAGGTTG` has PBM binding z-score at or above 1?
OUTPUT: rule not met

INPUT: Please tell me: is the sequence `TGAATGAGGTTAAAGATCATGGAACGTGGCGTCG` at or over 1 in terms of PBM binding z-score?
OUTPUT: rule met

INPUT: Could you please find out whether `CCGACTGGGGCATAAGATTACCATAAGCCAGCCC` has PBM binding z-score that meets 1 or exceeds it?
OUTPUT: rule not met

INPUT: In plain terms: is recorded PBM binding z-score at least 1 for `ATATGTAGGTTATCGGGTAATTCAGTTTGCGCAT` ?
OUTPUT: rule met
